// data source = patent US6723716B1

Reported values of MIC for individual entries
System: S. haemolyticus 05 (Meth^R)
API: value field is a number in mg/L; no unit string.

Observe how each entry below is paired with its result.
{"molecule": "NCCSCc1nsc(SC2=C(C(=O)O)N3C(=O)[C@@H](NC(=O)/C(=N\\O)c4nc(N)sc4Cl)[C@H]3SC2)n1 [Cmpd 12]", "test.target": "S. haemolyticus 05 (Meth^R)", "unit.spec": "mg/L", "observed.value": 2}
{"molecule": "NCCNc1nc(CSCCN)c(SC2=C(C(=O)O)N3C(=O)[C@@H](NC(=O)/C(=N\\O)c4nc(N)sc4Cl)[C@H]3SC2)s1 [Cmpd 16]", "test.target": "S. haemolyticus 05 (Meth^R)", "unit.spec": "mg/L", "observed.value": 1}
{"molecule": "NCCSCc1cnccc1SC1=C(C(=O)O)N2C(=O)[C@@H](NC(=O)/C(=N\\O)c3nsc(N)n3)[C@H]2SC1 [Cmpd 18]", "test.target": "S. haemolyticus 05 (Meth^R)", "unit.spec": "mg/L", "observed.value": 2}
{"molecule": "NCCSCc1cnccc1SC1=C(C(=O)O)N2C(=O)[C@@H](NC(=O)/C(=N\\O)c3nc(N)sc3Cl)[C@H]2SC1 [Cmpd 20]", "test.target": "S. haemolyticus 05 (Meth^R)", "unit.spec": "mg/L", "observed.value": 2}
{"molecule": "NCCSCc1ccncc1SC1=C(C(=O)O)N2C(=O)[C@@H](NC(=O)/C(=N\\O)c3cccc(N)n3)[C@H]2SC1 [Cmpd 28]", "test.target": "S. haemolyticus 05 (Meth^R)", "unit.spec": "mg/L", "observed.value": 16}

Below: the item to evaluate.
Query: Tell us which MIC value is on record for NCCSCc1ncsc1SC1=C(C(=O)O)N2C(=O)[C@@H](NC(=O)/C(=N\O)c3cccc(N)n3)[C@H]2SC1 [Cmpd 23]
Result: 4

* * *

Test system: rhesus serum proteins
experimental.details: Serum binding determination by ultrafiltration/HPLC
Assay type: in vitro ADME
experimental.parameters: by HPLC
measured.property: Serum Binding rhesus (% of compound bound to serum) (%)
Could you give me the number in %? Just the number is fine.

// below: answered molecules
{"molecule": "NCCSCc1ccncc1SC1=C(C(=O)O)N2C(=O)[C@@H](NC(=O)/C(=N\\O)c3nc(N)sc3Cl)[C@H]2SC1 [Cmpd 21]", "test.target": "rhesus serum proteins", "observed.value": 97}
{"molecule": "NCCSCc1ncsc1SC1=C(C(=O)O)N2C(=O)[C@@H](NC(=O)/C(=N\\O)c3cccc(N)n3)[C@H]2SC1 [Cmpd 23]", "test.target": "rhesus serum proteins", "observed.value": 93}
{"molecule": "NCCSCc1cnccc1SC1=C(C(=O)O)N2C(=O)C(NC(=O)/C(=N\\O)c3csc(N)n3)C2SC1 (stereo not drawn) [Cmpd 19]", "test.target": "rhesus serum proteins", "observed.value": 83}
{"molecule": "NCCSCc1cnccc1SC1=C(C(=O)O)N2C(=O)[C@@H](NC(=O)/C(=N\\O)c3nsc(N)n3)[C@H]2SC1 [Cmpd 18]", "test.target": "rhesus serum proteins", "observed.value": 67}
{"molecule": "NCCSCc1nc(N)sc1SC1=C(C(=O)O)N2C(=O)[C@@H](NC(=O)/C(=N\\O)c3nc(N)sc3Cl)[C@H]2SC1 [Cmpd 3]", "test.target": "rhesus serum proteins", "observed.value": 93}

Query: Provide Serum Binding rhesus (% of compound bound to serum), system rhesus serum proteins, entry NCCSCc1ncccc1SC1=C(C(=O)O)N2C(=O)[C@@H](NC(=O)/C(=N\O)c3nsc(N)n3)[C@H]2SC1 [Cmpd 17]
Result: 81

Query: Specify Serum Binding rhesus (% of compound bound to serum) for N=C(N)NCCSCc1cnccc1SC1=C(C(=O)O)N2C(=O)[C@@H](NC(=O)/C(=N\O)c3nsc(N)n3)[C@H]2SC1 [Cmpd 25] , system rhesus serum proteins.
Result: 55

Query: Enter recorded Serum Binding rhesus (% of compound bound to serum) with rhesus serum proteins for NCCSCc1cnccc1SC1=C(C(=O)O)N2C(=O)[C@@H](NC(=O)/C(=N\O)c3nc(N)sc3Cl)[C@H]2SC1 [Cmpd 20] here.
Result: 77

Query: Give Serum Binding rhesus (% of compound bound to serum) for this entry on rhesus serum proteins: N=C(N)NCCSCc1ncccc1SC1=C(C(=O)O)N2C(=O)[C@@H](NC(=O)/C(=N\O)c3nc(N)sc3Cl)[C@H]2SC1 [Cmpd 15]
Result: 88

* * *

System: human serum proteins
experimental.details: Serum binding determination by ultrafiltration/HPLC
Format: in vitro ADME
experimental.parameters: by HPLC
Description: The more accurate measurement of binding of selected cephalosporin compounds was performed using HPLC as described below. 1. Serum is placed in a shaking water bath preheated to 37±2° C. for 5 to 10 minutes to heat serum to 37° C. Serum pH is measured and recorded, while serum is 37° C. using pH paper. Measurements are taken twice, 3 minutes apart. If the pH is not 7.4±0.4 then the pH is adjusted by blowing 5% CO2/95% O2 over the serum. […]
This listing pairs molecules with measured Serum Binding human (% of compound bound to serum).
Numeric answer only, unit % assumed.

Consider the reported Serum Binding human (% of compound bound to serum) for these molecules:
{"molecule": "NCCSCc1cnccc1SC1=C(C(=O)O)N2C(=O)[C@@H](NC(=O)/C(=N\\O)c3cccc(N)n3)[C@H]2SC1 [Cmpd 24]", "unit.spec": "%", "observed.value": 88}
{"molecule": "NCCSCc1cnccc1SC1=C(C(=O)O)N2C(=O)C(NC(=O)/C(=N\\O)c3csc(N)n3)C2SC1 (centres unmarked) [Cmpd 19]", "unit.spec": "%", "observed.value": 68}
{"molecule": "NCCSCc1ncccc1SC1=C(C(=O)O)N2C(=O)[C@@H](NC(=O)/C(=N\\O)c3nc(N)sc3Cl)[C@H]2SC1 [Cmpd 13]", "unit.spec": "%", "observed.value": 90}
{"molecule": "NCCSCc1ccncc1SC1=C(C(=O)O)N2C(=O)[C@@H](NC(=O)/C(=N\\O)c3nc(N)sc3Cl)[C@H]2SC1 [Cmpd 21]", "unit.spec": "%", "observed.value": 90}

Could you now consider this next molecule?
Query: Determine from records and report Serum Binding human (% of compound bound to serum) for NCCSCc1nc(N)sc1SC1=C(C(=O)O)N2C(=O)[C@@H](NC(=O)/C(=N\O)c3nc(N)sc3Cl)[C@H]2SC1 [Cmpd 3]
Result: 88

* * *

Tested on: S. haemolyticus 05 (Meth^R)
MIC strictly under 4 µg/mL means y; at 4 µg/mL or over means n.

{"molecule": "COc1nc(CSCCN)c(SC2=C(C(=O)O)N3C(=O)[C@@H](NC(=O)/C(=N\\O)c4cccc(N)n4)[C@H]3SC2)s1", "class": "n"}

Query: is_below(MIC, 4 µg/mL) for N=C(N)NCCSCc1cnccc1SC1=C(C(=O)O)N2C(=O)[C@@H](NC(=O)/C(=N\O)c3nsc(N)n3)[C@H]2SC1 ?
Result: y

Query: Field: below-cutoff. Rule: recorded MIC strictly less than 4 µg/mL. Subject: NCCSc1nccnc1SC1=C(C(=O)O)N2C(=O)C(NC(=O)/C(=N\O)c3cccc(N)n3)C2SC1 (centres unmarked)
Result: y

* * *

MIC values, listed per item
System: S. haemolyticus 05 (Meth^R)
Just the number please, in µg/mL, no unit attached.

// known answers, use as guide
{"compound": "NCCSCc1nnc(SC2=C(C(=O)O)N3C(=O)[C@@H](NC(=O)/C(=N\\O)c4nc(N)sc4Cl)[C@H]3SC2)s1", "observed.value": 4}
{"compound": "NCCSc1nnc(SC2=C(C(=O)O)N3C(=O)[C@@H](NC(=O)/C(=N\\O)c4nc(N)sc4Cl)[C@H]3SC2)s1", "observed.value": 1}
{"compound": "NCCSc1cncc(SC2=C(C(=O)O)N3C(=O)C(NC(=O)/C(=N\\O)c4cccc(N)n4)C3SC2)n1 (centres unmarked)", "observed.value": 32}
{"compound": "Cc1nc(CSCCN)c(SC2=C(C(=O)O)N3C(=O)[C@@H](NC(=O)/C(=N\\O)c4cccc(N)n4)[C@H]3SC2)s1", "observed.value": 4}

Now consider the entry below.
Query: Give MIC; test system S. haemolyticus 05 (Meth^R); compound NCCSCc1nc(Cl)sc1SC1=C(C(=O)O)N2C(=O)[C@@H](NC(=O)/C(=N\O)c3cccc(N)n3)[C@H]2SC1
Result: 2
